From: patent US20220064301A1

# EC50 listing for each entry below
Biological target: T1, human CTLA4-Fc (R&D #7268-CT) (human, UniProt P16410 36-162)
T1 construct: Bought reagent coated on ELISA plates; also called human CTLA-Fc; not shown: Fc part of the bought fusion; not described
T1 sequence (P16410 36-162 limits assumed): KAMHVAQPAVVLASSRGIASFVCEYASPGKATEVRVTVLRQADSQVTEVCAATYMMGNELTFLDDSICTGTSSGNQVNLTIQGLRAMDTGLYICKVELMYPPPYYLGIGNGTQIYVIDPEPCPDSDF
Assay: huCTLA4-Fc binding ELISA (luminescence)

- Binder: "Antibody 1-2 (version of Antibody 1 having a S239D mutation and an I332E mutation in the Fc region) (antibody, V domains shown, Variable domains inferred as for Antibody 1-1; Full antibody with S239D and I332E in the Fc region) VH: QVQLQESGPGLVKPSETLSLTCSVTYHTITSGYDWTWIRKPPGKGMEWIGYISYSGNTNYNPSLKSRVTISRDTSKNQFFLKLSSVTAADTAVYYCASMMVPHYYVMDAWGQGTLVTVSSA VL: DIVMTQTPLSLSVTPGQPASISCRSSQSLLNSDGNTYLYWYLQKPGQSPQLLIYLVSKLGSGVPNRFSGSGSGTDFTLKISRVEAEDVGVYYCVQGTHDPWTFGGGTKVEIKR"
  EC50 / nM: 0.56
- Binder: "Antibody 1-aFuc (afucosylated version of Antibody 1) (antibody, V domains shown, afucosylated Fc glycan, Variable domains inferred as for Antibody 1-1; Afucosylated full antibody) VH: QVQLQESGPGLVKPSETLSLTCSVTYHTITSGYDWTWIRKPPGKGMEWIGYISYSGNTNYNPSLKSRVTISRDTSKNQFFLKLSSVTAADTAVYYCASMMVPHYYVMDAWGQGTLVTVSSA VL: DIVMTQTPLSLSVTPGQPASISCRSSQSLLNSDGNTYLYWYLQKPGQSPQLLIYLVSKLGSGVPNRFSGSGSGTDFTLKISRVEAEDVGVYYCVQGTHDPWTFGGGTKVEIKR"
  EC50 / nM: 0.41
- Binder: "Antibody 2-aFuc (afucosylated version of Antibody 2) (antibody, V domains shown, afucosylated Fc glycan, Afucosylated full antibody) VH: QVQLVQSGAEVKKPGSSVKVSCKASGYTFTNYFMNWVRQAPGQGLEWMGRVDPEQGRADYAEKFKKRVTITADKSTSTAYMELSSLRSEDTAVYYCARRAMDNYGFAYWGQGTLVTVSSA VL: EIVLTQSPDFQSVTPKEKVTITCSANSALSYMYWYQQKPDQSPKLWVHGTSNLASGVPSRFSGSGSGTDFTLTINSLEAEDAATYYCHHWSNTQWTFGGGTKVEIKR"
  EC50 / nM: 0.36
